Tested on: green peach aphid (Myzus persicae)
Assay: Myzus test (spray treatment)
Format: in vivo
Settings: 500 g/ha, spray on Chinese cabbage leaf discs, after 6 days; 100% = all aphids killed
metric: efficacy in % (aphids killed) (%)
Provide only the numeric value, understood in %.

These solved cases illustrate the format of a correct answer.
structure string: Cc1nc(-c2cccnc2)sc1NC(=O)CC(F)(F)F
readout number: 80

structure string: Cc1nn(-c2cccnc2)cc1C(=O)NS(=O)(=O)c1ccccc1
readout number: 100

structure string: CN(C)S(=O)(=O)NC(=O)c1cnn(-c2cccnc2)c1
readout number: 90

structure string: CN(C)S(=O)(=O)NC(=O)c1cnn(-c2cncc(F)c2)c1
readout number: 100

structure string: O=C(NS(=O)(=O)C1CC1)c1cnn(-c2cncc(F)c2)c1
readout number: 90

structure string: Cc1nc(-c2cccnc2)sc1NC(=O)Cc1ncccn1
readout number: 100

Moving on to the next molecule.
// field: efficacy in % (aphids killed); key: `Cc1nc(-c2cccnc2)sc1S(=O)(=O)N(C)C` ; value = 100

====

Experiment: Determination of the log P values (formic acid method) by reverse-phase HPLC
Assay type: physicochemical
Conditions: reverse-phase HPLC column (C 18), reverse-phase column (C 18), acidic range (pH 3.4), 55° C., table, read-out: logP (HCOOH)
metric: chromatographic logP
// no unit string in output, number only

compound: Cc1nn(-c2cccnc2)cc1C(=O)NS(C)(=O)=O [Compound 13]
readout number: 0.81

compound: COCCNS(=O)(=O)c1sc(-c2cccnc2)nc1C [Compound 14]
readout number: 1.51

compound: CS(=O)(=O)NC(=O)c1cnn(-c2cccnc2)c1 [Compound 16]
readout number: 0.41

// field: chromatographic logP; key: Cc1nc(-c2cccnc2)sc1S(=O)(=O)NCc1ncccn1 [Compound 10] ; value = 1.35

// field: chromatographic logP; key: CCS(=O)(=O)NC(=O)c1cnn(-c2cncc(F)c2)c1 [Compound 21] ; value = 1.24

// field: chromatographic logP; key: O=C(NS(=O)(=O)C(F)(F)F)c1cnn(-c2cccnc2)c1 [Compound 15] ; value = 0.67

// field: chromatographic logP; key: O=C(NS(=O)(=O)C1CC1)c1cnn(-c2cncc(F)c2)c1 [Compound 8] ; value = 1.28

// field: chromatographic logP; key: O=C(NS(=O)(=O)C1CC1)c1cnn(-c2cccnc2)c1 [Compound 11] ; value = 0.83

// field: chromatographic logP; key: Cc1nc(-c2cccnc2)sc1C(=O)NS(C)(=O)=O [Compound 12] ; value = 0.54

// field: chromatographic logP; key: CS(=O)(=O)NC(=O)c1cnn(-c2cncc(F)c2)c1 [Compound 18] ; value = 0.9

// field: chromatographic logP; key: Cc1nc(-c2cncc(F)c2)sc1C(=O)NS(C)(=O)=O [Compound 20] ; value = 1.08

// field: chromatographic logP; key: O=C(NS(=O)(=O)c1ccccc1)c1cnn(-c2cccnc2)c1 [Compound 9] ; value = 1.39

// field: chromatographic logP; key: Cc1nn(-c2cccnc2)cc1C(=O)NS(=O)(=O)c1ccccc1 [Compound 6] ; value = 1.71

// field: chromatographic logP; key: O=C(NS(=O)(=O)c1ccccc1)c1cnn(-c2cncc(F)c2)c1 [Compound 17] ; value = 1.81

// field: chromatographic logP; key: CCS(=O)(=O)NC(=O)c1cnn(-c2cccnc2)c1 [Compound 19] ; value = 0.69

// field: chromatographic logP; key: CN(C)S(=O)(=O)NC(=O)c1cnn(-c2cncc(F)c2)c1 [Compound 7] ; value = 1.42
